Test system: PfAP2-G AP2 domain (GST-tagged)
Assay: gcPBM binding intensity (ln(normalized median fluorescence intensity)); higher = stronger DNA binding
In all, about 25,000 sequences were measured (“ln(normalized median fluorescence intensity)”: median about 10, highest 2% from about 12 on). This excerpt belongs to a sample that is enriched for the highest values.
The reader will find reported gcPBM binding intensity (ln) values listed item by item below.

ORDERED RESIDUES | TARGET | gcPBM binding intensity (ln)
TTTTAATGTACCAGTGTGCACCTTGCGTACATATTA [GTGCAC_site9957] | PfAP2-G AP2 domain (GST-tagged) | 11.6
TATGTATATTTTTTTGTGCACATATATATATATATA | PfAP2-G AP2 domain (GST-tagged) | 10.4
TACACATACAGACATACACACATACACATATACACA [CACACA_site6918] | PfAP2-G AP2 domain (GST-tagged) | 10.2
TCCTTACCTATTAAAGCATGCTCGAATATATATTTT [TGCATGCA_site53] | PfAP2-G AP2 domain (GST-tagged) | 9.81
TTGCATTAATTTATGTGTACATATAAATTTTTATTT [XGTACX_site3060] | PfAP2-G AP2 domain (GST-tagged) | 11.6
ATTTTTATTTTTTTTGTGCACATTTTCATTTTCTAT [GTGCAC_site9580] | PfAP2-G AP2 domain (GST-tagged) | 10.5
TTATAAAAATACAGTTAACACACATGTGTATATATA [CACACA_site9257] | PfAP2-G AP2 domain (GST-tagged) | 10.4
ATACACACTTAAAAAAGTACTTAACTACATGAATTG [XGTACX_site1203] | PfAP2-G AP2 domain (GST-tagged) | 11.1
ACCCAAGAGAAAAGAGAAAGAAATATGTGTATATTG [GTGCAC_negctrl_site214] | PfAP2-G AP2 domain (GST-tagged) | 9.92
TGTATGTATGTATTATTTGTTATTTTAATTTTTTTG [TGCATGCA_negctrl_site256] | PfAP2-G AP2 domain (GST-tagged) | 10.4
ATAAATACATTAAAATGTACATAAAAATATTACTGG [XGTACX_site1484] | PfAP2-G AP2 domain (GST-tagged) | 11.2
TATGTTAAAAAAAAATGTACATATGTTTTTGTTAAA [XGTACX_site4754] | PfAP2-G AP2 domain (GST-tagged) | 11.2
TTTCTTACAACAACAACAAAAAAAAATAAATAAAAT [GTGCAC_negctrl_site711] | PfAP2-G AP2 domain (GST-tagged) | 9.91
TATAAGCTAAGTTGTTGTACAAAAAGGAAAAGTATA [XGTACX_site3741] | PfAP2-G AP2 domain (GST-tagged) | 11.1
TTTTTATAAGCATAAAGTACAAATATTTTTTAGTTG [XGTACX_site4140] | PfAP2-G AP2 domain (GST-tagged) | 11

###

Tested on: PfAP2-G AP2 domain (GST-tagged)
Assay: gcPBM binding intensity (ln(normalized median fluorescence intensity)); higher = stronger DNA binding
Whole data set: some 25,000 sequences, median “ln(normalized median fluorescence intensity)” near 10, cut for the highest 2% near 12. The sample as a whole holds a higher share of the highest values than the screen did.

ORDERED RESIDUES | gcPBM binding intensity (ln)
AAAATTAAAAAGAACACACAAATATATCTATAATAA [CACACA_site7660] | 9.81
ATAGAATAATATTGTAGTACTAAAAATATTCATTTT [XGTACX_site6447] | 11.4
TAAAATTTTTTATTCACACAAATATAGTTATATATA [CACACA_site5348] | 9.81
CGATACTTTAGGTGTACACAAATATACATGAATGAG [CACACA_site5189] | 11.6
GAATACACCACGCACACACACTTGAGAAAAAATAAA [CACACA_site7747] | 10.6
TTTGTATAATACATGTGTACGTATTTTTATATAAAT [XGTACX_site8656] | 11.6
TTTATACACAAAAAATGTACATATATATAATGAATT [XGTACX_site1195] | 11.2
ACGTATGTATATTACACACATACATATTATTCACTA [CACACA_site204] | 10.1
TACTGAAATAATTATTTAAACGTTTTTATATGTATT [CACACA_negctrl_site487] | 9.83
AAATTTTAAATAGTATGTACGTATGAAATATATATG [XGTACX_site7511] | 11.4
TGCCTATGACATGAATGTACATTAAAATTAAATAAA [XGTACX_site7126] | 10.8
